# testName: Experiment 4: in vivo pharmacokinetic behavior, rapamycin level in blood
# Design: species or system male Sprague-Dawley rats
# settings: male, Sprague-Dawley, rat, whole blood; rats, 10 mg/kg, intravenous administration
metric: half-life (h)
Your answer should be a plain number; it is taken to be in h.

# lookup: half-life of CO[C@H]1C[C@@H]2CC[C@@H](C)[C@@](O)(O2)C(=O)C(=O)N2CCCC[C@H]2C(=O)O[C@H]([C@H](C)C[C@@H]2CC[C@@H](O)[C@H](OC)C2)CC(=O)[C@H](C)/C=C(\C)[C@@H](O)[C@@H](OC)C(=O)[C@H](C)C[C@H](C)/C=C/C=C/C=C/1C [rapamycin, Rapamycin]
10.5

====

# testName: Experiment 4: in vivo pharmacokinetic behavior, rapamycin level in blood
# Set-up: species or system male Sprague-Dawley rats
# settings: male, Sprague-Dawley, rat, whole blood; rats, 10 mg/kg, intravenous administration
metric: AUC(0-inf) (ng·h/mL)
Your answer should be a plain number; it is taken to be in ng·h/mL.

# lookup: AUC(0-inf) of CO[C@H]1C[C@@H]2CC[C@@H](C)[C@@](O)(O2)C(=O)C(=O)N2CCCC[C@H]2C(=O)O[C@H]([C@H](C)C[C@@H]2CC[C@@H](O)[C@H](OC)C2)CC(=O)[C@H](C)/C=C(\C)[C@@H](O)[C@@H](OC)C(=O)[C@H](C)C[C@H](C)/C=C/C=C/C=C/1C [rapamycin, Rapamycin]
5600

====

# testName: Experiment 4: in vivo pharmacokinetic behavior, rapamycin level in blood
# Set-up: species or system male Sprague-Dawley rats
# settings: male, Sprague-Dawley, rat, whole blood; rats, 10 mg/kg, intravenous administration
metric: Tmax (min)
Your answer should be a plain number; it is taken to be in min.

# lookup: Tmax of `CO[C@H]1C[C@@H]2CC[C@@H](C)[C@@](O)(O2)C(=O)C(=O)N2CCCC[C@H]2C(=O)O[C@H]([C@H](C)C[C@@H]2CC[C@@H](O)[C@H](OC)C2)CC(=O)[C@H](C)/C=C(\C)[C@@H](O)[C@@H](OC)C(=O)[C@H](C)C[C@H](C)/C=C/C=C/C=C/1C`
15

====

# testName: Experiment 4: in vivo pharmacokinetic behavior, rapamycin level in blood
# Set-up: species or system male Sprague-Dawley rats
# settings: male, Sprague-Dawley, rat, whole blood; rats, 10 mg/kg, intravenous administration
metric: Cmax (ng/mL)
Your answer should be a plain number; it is taken to be in ng/mL.

# lookup: Cmax of CO[C@H]1C[C@@H]2CC[C@@H](C)[C@@](O)(O2)C(=O)C(=O)N2CCCC[C@H]2C(=O)O[C@H]([C@H](C)C[C@@H]2CC[C@@H](O)[C@H](OC)C2)CC(=O)[C@H](C)/C=C(\C)[C@@H](O)[C@@H](OC)C(=O)[C@H](C)C[C@H](C)/C=C/C=C/C=C/1C [rapamycin, Rapamycin]
2890

====

# testName: Experiment 4: in vivo pharmacokinetic behavior, rapamycin level in blood
# Set-up: species or system male Sprague-Dawley rats
# settings: male, Sprague-Dawley, rat, whole blood; rats, 10 mg/kg on the basis of rapamycin, intravenous administration
metric: AUC(0-t) (µg·h/mL)
Your answer should be a plain number; it is taken to be in µg·h/mL.

# lookup: AUC(0-t) of `CO[C@H]1C[C@@H]2CC[C@@H](C)[C@@](O)(O2)C(=O)C(=O)N2CCCC[C@H]2C(=O)O[C@H]([C@H](C)C[C@@H]2CC[C@@H](O)[C@H](OC)C2)CC(=O)[C@H](C)/C=C(\C)[C@@H](O)[C@@H](OC)C(=O)[C@H](C)C[C@H](C)/C=C/C=C/C=C/1C`
5.37
